Test system: COLO 205 colon
Assay: NCI-60 one-dose screen, 48 h (100 = growth as untreated, 0 = no growth, -100 = all killed)
Details: 10 µM
Description: Cells are grown in 96 well plates and exposed to the test compound for 48 hours. Compounds are tested at a single concentration, which is 10^-5 M for most compounds. The reported endpoint is percent growth (GI% or GIPRCNT), where numbers from 0 - 100% represent growth inhibition, and numbers from -100% - 0 represent cell death. For example, a value of 40 represents 60% growth inhibition. A value of 0 means no net growth occurred over the course of the experiment. […]
Compounds without any hit were thinned out: in the full panel of roughly 83,000, 20% have a hit.
Classification field: Condition met = growth at or over 30%; Condition not met = growth under 30%.

Below, 4 compounds whose answers are already recorded.
CC(=O)c1ccc(Nc2nc(SC(C)C)nc(-c3ccccc3)c2C#N)cc1; Condition met
CN1CCN(c2ccc(C(=O)/C=C/c3ccc(C#N)cc3)cc2)CC1; Condition met
CN1CCN(c2ccc(Nc3nc(NCCCNC(=O)C4CCCCC4)c4sccc4n3)cc2)CC1; Condition met
Nc1nc(-c2ccccc2)cc(-c2cc3ccccc3nc2Cl)n1; Condition met

Ask | I'd appreciate it if you could say whether O=C1CCC(N2Cc3cc(NC(=O)COc4ccccc4)ccc3C2=O)C(=O)N1 (centres undefined) has growth at least equal to 30%.
Reply | Condition met

Ask | Next up: COc1cc(C2CC(c3ccccc3)=Nc3c(N)nc(N)nc3N2)ccc1Oc1nc(Nc2ccc(F)cc2)nc(N(C)C)n1 (centres undefined)
Reply | Condition not met

Ask | Next up: CC1=C2C(=C[C@@](C)(CO)[C@@H]2O)/C(=N\N)[C@](C)(O)C12CC2
Reply | Condition not met

Ask | Next up: O=C(c1ccc(O)cc1)C1[C@H](c2ccc(Br)cc2)[C@@H](c2ccccc2)NC12C(=O)Nc1ccccc12 (some centres undefined)
Reply | Condition not met

* * *

Kindly state growth for each of the entries shown.
System: HOP-62 NSCLC
Assay: NCI-60 one-dose screen, 48 h (100 = growth as untreated, 0 = no growth, -100 = all killed)
Conditions: 10 µM
This is part of a sample that, as a whole, favours compounds with a hit. Of some 83,000 tested, about 20% had one in any assay.
Numbers only, in %.

O=C(Nc1ccc(Cl)c(C(F)(F)F)c1)c1cncc(C#Cc2cnc3ccc(N4CCOCC4)nn23)c1; 11.1
O=C(Cc1ccc2c(c1)CN(C1CCC(=O)NC1=O)C2=O)NCc1cccc2ccccc12 (stereo not given); -23.1
CCN1CCN(Cc2ccc(C(=O)Nc3cccc(-c4cn(-c5ccc6oc(=O)ccc6c5)nn4)c3)cc2C(F)(F)F)CC1; -99.5
COc1ccc(OC)c(-c2cc(-c3c[nH]c4ccccc34)nc(N)c2C#N)c1; 10

Could you now look at the following molecule, please?
Ask | Name the reported growth value associated with the molecule O=C(Nc1nc2ccc([N+](=O)[O-])cc2s1)Nc1ccccc1I
Reply | 7.62

* * *

Tested on: HOP-92 NSCLC
Experiment: NCI-60 one-dose screen, 48 h
Conditions: 10 µM
The panel holds about 83,000 compounds, 20% with a hit somewhere; the sample as a whole holds those more often. Active and inactive are the calls of the source. The calls were made as follows: active = growth percent below 10; inactive = the rest.
// classify into active, inactive

Below, 10 compounds whose answers are already recorded.
CCCCCc1ccc(S(=O)(=O)Nc2cc(-c3csc(N(C)C(C)=O)n3)ccc2N2CCN(C)CC2)cc1; active
S=c1nc(-c2ccccc2)cc(-c2cc3ccccc3nc2Cl)[nH]1; inactive
Cc1ccc(-c2cc(C(=O)N=Nc3c(O)[nH]c4ccc(Br)cc34)c3ccccc3n2)cc1; inactive
COc1cc(/C=C/C(=O)c2ccc(NC(=O)CN3C(=O)NC(C)(c4ccccc4)C3=O)cc2)cc(OC)c1OC (stereo not drawn); inactive
O=C(CS(=O)(=O)c1oc(-c2ccc(Cl)cc2)nc1S(=O)(=O)c1ccc(Cl)cc1)N1CCOCC1; active
CC1(c2ccccc2)NC(=O)N(CC(=O)Nc2ccc(C(=O)/C=C/C=C/c3ccccc3)cc2)C1=O (stereo not drawn); inactive
CCCCOc1ccc(Nc2nc3ccccc3nc2Nc2ccc(OCCCC)cc2)cc1; inactive
CC1=C(c2cc(-c3ccc(Cl)cc3)c(C#N)c(N)n2)C(c2ccccc2)NC(=S)N1 (stereo not drawn); inactive
CN1CCCN(Cc2ccc(C(=O)Nc3cccc(Nc4ccc5c(O)cccc5n4)c3)cc2C(F)(F)F)CC1; active
CN1CCN(c2ccc(C(=O)/C=C/c3ccc(OC(F)F)cc3)cc2)CC1; inactive

Ask | Name the outcome recorded for O=c1[nH]c2ccccc2cc1CSc1ccc(Nc2nccc(-c3ccc4c(c3)OCO4)n2)cc1 in the assay.
Reply | inactive

Ask | Next up: CC(=O)NS(=O)(=O)c1ccc(NC(=O)CSC2=NC(c3ccccc3)C(C(C)=O)=C(C)N2)cc1 (stereo not drawn)
Reply | inactive

Ask | Next up: CC(C)C1=C[C@@]23CC[C@@H]4[C@](C)(CCC[C@]4(C)C(=O)NCc4ccccc4)[C@H]2C[C@@H]1[C@H]1C(=O)OC(=O)[C@H]13
Reply | inactive

Ask | Next up: Cc1cc(C)nc(NS(=O)(=O)c2ccc(N/C(N)=N/c3nccc(-c4ccccc4)n3)cc2)n1
Reply | inactive

Ask | Next up: C=C1CCC2C3(C)COC(c4ccccc4F)OC3CCC2(C)C1C/C=C1/C(=O)OCC1O (stereo not drawn)
Reply | active

Ask | Next up: COc1cc(C2CC(c3ccccc3)=Nc3c(N)nc(N)nc3N2)ccc1Oc1nc(Nc2ccc(F)cc2)nc(N(C)C)n1 (stereo not drawn)
Reply | inactive

Ask | Next up: COc1ccc(C=CC(=O)c2ccc(-n3c(C)nc4c(cnn4-c4ccccc4)c3=O)cc2)cc1
Reply | inactive

Ask | Next up: O=C(Nc1ccc(OCc2ccccc2)cc1)Nc1ccc(Cl)c(C(F)(F)F)c1
Reply | active

* * *

Test system: TK-10 renal
Assay: NCI-60 one-dose screen, 48 h
Details: 10 µM
About 83,000 compounds went through this panel and 20% of them were active in at least one assay; those are over-represented in the sample as a whole. Calls of active or inactive are those of the source. The calls were made as follows: active = growth percent below 10; inactive = the rest.
// classify into active, inactive

COC1CC(Cn2cc(COc3ccc4ccc(=O)oc4c3)nn2)C(OCc2ccccc2)C(OCc2ccccc2)C1OCc1ccccc1 (centres undefined); inactive
CC1=C2C(=C[C@@](C)(CO)[C@@H]2O)/C(=N\N)[C@](C)(O)C12CC2; active
Cc1ccc(/C(CSc2nnc(-c3c[nH]c4ccccc34)n2-c2ccccc2)=N/O)cc1; active
CC1(c2ccccc2)NC(=O)N(CC(=O)Nc2ccc(C(=O)/C=C/c3ccc(Cl)cc3)cc2)C1=O (centres undefined); inactive
CC(=O)NNc1ccc2nnc(-c3ccc(Br)cc3)n2n1; inactive
COc1cc(/C=C/C(=O)c2ccc(NC(=O)CN3C(=O)NC(C)(c4ccccc4)C3=O)cc2)cc(OC)c1OC (centres undefined); inactive

Ask | Name the outcome recorded for Cc1nc(Nc2nc(C)c3ccc(OCCN4CCOCC4)cc3n2)[nH]c(=O)c1C in the assay.
Reply | inactive

Ask | Next up: O=C(NO)c1ccc(CNc2nc(-c3ccccc3)c3ccccc3n2)cc1
Reply | active

Ask | Next up: Cc1ccc(/C=C/C(=O)c2ccc(NC(=O)CSc3nnc(-c4c[nH]c5ccccc45)n3-c3ccccc3)cc2)cc1
Reply | inactive

* * *

Kindly state growth for each of the entries shown.
Tested on: SK-MEL-28 melanoma
Test: NCI-60 one-dose screen, 48 h (100 = growth as untreated, 0 = no growth, -100 = all killed)
Settings: 10 µM
The panel holds about 83,000 compounds, 20% with a hit somewhere; the sample as a whole holds those more often. Active and inactive are the calls of the source. The calls were made as follows: active = growth percent below 10; inactive = the rest.

# count of solved cases: 4
COc1cc(-c2nc3cc(Cl)c(Cl)cc3[nH]2)ccc1OCc1nnc(-c2ccc(Br)cc2)o1; -25% (active)
COc1ccc(/C=C/C(=O)c2ccc(NC(=O)CN3C(=O)NC(C)(c4ccccc4)C3=O)cc2)cc1 (stereo not given); 93.8% (inactive)
O=C(NO)c1ccc(-c2nc3ccc4[nH]ncc4c3c3c2CCCC3)cc1; -55% (active)
O=c1[nH]c2ccccc2cc1CSc1ccc(Nc2nccc(-c3ccc4c(c3)OCO4)n2)cc1; 105% (inactive)

Could you now look at the following compound, please?
Ask | Query the reported growth for SK-MEL-28 melanoma; item: O=C(Nc1nc2ccc([N+](=O)[O-])cc2s1)Nc1cc(Cl)ccc1I
Reply | -52.7% (active)

* * *

Test system: OVCAR-5 ovarian
Assay: NCI-60 one-dose screen, 48 h (100 = growth as untreated, 0 = no growth, -100 = all killed)
Settings: 10 µM
Protocol: Growth inhibition of the OVCAR-5 human tumor cell line is measured as a screen for anti-cancer activity. Cells are grown in 96 well plates and exposed to the test compound for 48 hours. Compounds are tested at a single concentration, which is 10^-5 M for most compounds. The reported endpoint is percent growth (GI% or GIPRCNT), where numbers from 0 - 100% represent growth inhibition, and numbers from -100% - 0 represent cell death. For example, a value of 40 represents 60% growth inhibition. […]
Compounds without any hit were thinned out: in the full panel of roughly 83,000, 20% have a hit.
outcome_measure: growth (%)
One number for each entry, in %.

Cc1cc(=O)oc2cc(OCCCCOc3ccc(/C=C/C(=O)Nc4ccccc4[N+](=O)[O-])cc3)ccc12; 108
C=C[C@@]12CN3CC[C@]1(O)[C@@](C(=O)OC)(CO2)c1[nH]c2ccccc2c1C3; 49.2
CN1CCN(c2ccc(C(=O)/C=C/c3cc(Br)ccc3F)cc2)CC1; 135
NS(=O)(=O)c1ccc(NC(=O)CSc2ccc(-c3ccccc3)nn2)c(Br)c1; 90.4
O=C(Cn1nc(-c2ccccc2)ccc1=O)NNC(=S)NC1CCCCC1; 105
COc1cccc(-c2ccc(/C=N/NC(=O)c3[nH]c4ccc(Br)cc4c3-c3ccccc3)o2)c1; 12.3
CCOC(=O)CNC(=O)CN(Cc1ccccc1)C(=O)[C@@]1(C)CCC[C@]2(C)[C@H]3CC4C(C(C)C)=C[C@]3(CC[C@H]21)[C@@H]1C(=O)CCC(=O)[C@H]41; 97.8
Nc1cc(-c2cccc(C(=O)NCc3ccc4c(c3)OCO4)c2)ccn1; 121
COc1ccc(OC)c(/C=N/NC(=O)c2ccc3nc(-c4ccc(Cl)cc4)[nH]c3c2)c1; 104
Cc1ccc(CSc2nc(Cl)c(C#N)c(-c3ccc(F)cc3)n2)cc1; 94.1

Value sought for every listed molecule: growth.
1. COc1ccccc1[C@H]1C(C(=O)c2ccc(O)cc2)C2(N[C@@H]1c1ccccc1)C(=O)Nc1ccc(Br)cc12 (some centres undefined)
2. O=C(CSc1nnc(-c2c[nH]c3ccccc23)n1-c1ccccc1)c1ccccc1
3. CN1CCN(c2ccc(C(=O)/C=C/c3ccc(C#N)cc3)cc2)CC1

Reply |
1: 62.7; 2: 88.6; 3: 127

Value sought for every listed molecule: growth.
1. COc1ccc(C=CC(=O)c2ccc(-n3c(C)nc4c(cnn4-c4ccccc4)c3=O)cc2)cc1
2. COc1ccc(C(=O)Nc2sc3c(c2C#N)CCC(=O)C3)cc1C(F)(F)F
3. C=C(c1ccc(OC)c(N)c1)c1cc(C)nc2ccccc12
4. O=C(Cn1cc(CSc2nnc3oc4ccccc4n23)nn1)Nc1cccc(Cl)c1
5. Cc1cc(C(F)(F)F)ccc1C(=O)Nc1sc2c(c1C#N)CCC(=O)C2

Reply |
1. 111
2. 35.3
3. 26.3
4. 87.8
5. -33.3

Ask | Name the reported growth value associated with the molecule CCN(CC)CCOc1ccc(C(=C(C)c2ccccc2)c2ccc(OCCN(CC)CC)cc2)cc1
Reply | 24.9
